- assay.info: MRT in Sprague-Dawley rat at 10 mg/kg, po measured up to 24 hrs by LC-MS/MS analysis
- Format: ADME, organism-based
- measurement.setup: in vivo
metric.name: MRT (h)
The figure you give is taken to be in h; do not add the unit.

MRT recorded for this compound, CN1CCN(c2ccc(Nc3ncc(Cl)c(Nc4cccc(C(F)(F)F)c4)n3)nc2)CC1 , is 2.68
